Hey, just so you know, these numbers are from PubChem BioAssay (NCI).

System: SR leukemia
Protocol Description: NCI tumour cell line growth inhibition, 48 h
Please respond with reported TGI for every item in the list.

Qu. In one line, give reported TGI of the entry [O-][n+]1onc2c3nn(-c4ccccc4)nc3ccc21 .
Ans. > 75.1 µM

Qu. In one line, give reported TGI of the entry COc1ccc2c(c1)OCC1(O)Cc3ccccc3OC21 (stereo unspecified) .
Ans. > 100 µM

Qu. In one line, give reported TGI of the entry CC(=O)OC1COC(N2C(=O)C(=O)c3c(C)cc(Cl)nc32)C(OC(C)=O)C1OC(C)=O (stereo unspecified) .
Ans. > 100 µM

Qu. In one line, give reported TGI of the entry COc1ccc(/C=C2/SC(=Nc3c(C)nn(-c4ccccc4)c3N)NC2=O)cc1 .
Ans. 18 µM

Qu. In one line, give reported TGI of the entry Cc1cc2c(cc1-c1cc3c(cc1C)C(C(C)C)=C(O)C(=O)/C3=C\Nc1nc(-c3ccccc3)cs1)/C(=C/Nc1nc(-c3ccccc3)cs1)C(=O)C(O)=C2C(C)C .
Ans. > 100 µM

Qu. In one line, give reported TGI of the entry COc1c(O)c2ccccc2c2cc(O)ccc12 .
Ans. > 68.4 µM

Qu. In one line, give reported TGI of the entry CN(C)C1(C#N)CCC2(CC1)OCCO2 .
Ans. > 100 µM

Qu. In one line, give reported TGI of the entry O=c1[nH]nc(-c2ccccc2)c(-c2ccccc2)c1-n1nc(-c2ccccc2)c2ccccc2c1=O .
Ans. > 100 µM

Qu. In one line, give reported TGI of the entry COc1ccc2oc(S(=O)(=O)N3CC(CCl)c4ccc([N+](=O)[O-])cc43)cc2c1 (stereo unspecified) .
Ans. > 100 µM

Qu. In one line, give reported TGI of the entry COCn1c2ccc(OC(C)=O)cc2c2c(=O)oc(C)nc21 .
Ans. > 100 µM

Qu. In one line, give reported TGI of the entry Cn1ccnc1CCc1ccc(F)cc1F .
Ans. > 100 µM

----------
Test system: BT-549 breast
Protocol Description: NCI tumour cell line growth inhibition, 48 h
Please respond with reported TGI for every item in the list.

Qu. Answer with TGI of Nc1ccc2c(c1)C1Oc3ccccc3CC1CO2 (configuration not stated) measured for BT-549 breast.
Ans. > 100 µM

Qu. Answer with TGI of CCN1CCC(C(=O)Nc2n[nH]c3nnc(-c4cccc(F)c4F)cc23)CC1 measured for BT-549 breast.
Ans. > 25 µM

Qu. Answer with TGI of CC[C@]1(O)C[C@@H]2CN(Cc3c([nH]c4ccccc34)[C@@](C(=O)OC)(c3cc4c(cc3OC)N(C)[C@H]3[C@@](O)(C(=O)OC)[C@H](OC(C)=O)[C@]5(CC)[C@@H]6C[C@@H]6CN6CC[C@]43[C@@H]65)C2)C1 measured for BT-549 breast.
Ans. > 4.38 µM

Qu. Answer with TGI of CCOC(=O)C1=CN=C2C(=O)N(c3ccccc3)N(C)C2(C)C1=N (configuration not stated) measured for BT-549 breast.
Ans. > 100 µM

Qu. Answer with TGI of CCCCC1(N=[N+]=[N-])C(=O)c2cccc3c2N(CCC3)C1=O (configuration not stated) measured for BT-549 breast.
Ans. > 100 µM

Qu. Answer with TGI of CC(C)(O)Cn1c(=O)c(Oc2ccc(F)cc2F)cc2cnc(NC3CCOCC3)nc21 measured for BT-549 breast.
Ans. > 25 µM

Qu. Answer with TGI of CCCSc1cc(Cl)c(C)cc1S(=O)(=O)n1ccnc1OCCCN(C)C measured for BT-549 breast.
Ans. > 100 µM

Qu. Answer with TGI of Cc1cc(S(=O)(=O)Nc2nc3ccsc3c(=O)n2N)c(S)cc1Cl measured for BT-549 breast.
Ans. > 100 µM

Qu. Answer with TGI of CCc1nc(N)nc(N)c1-c1ccc(Cl)cc1 measured for BT-549 breast.
Ans. > 100 µM

Qu. Answer with TGI of CCOC(=O)c1cnc2ccc(Cl)cc2c1NCCCN(C)C measured for BT-549 breast.
Ans. > 100 µM

Qu. Answer with TGI of Cc1oc2nc1C(=O)NCc1nc(cs1)C(=O)N[C@H](C(C)C)c1nc(cs1)C(=O)N[C@H]2C measured for BT-549 breast.
Ans. > 100 µM

Qu. Answer with TGI of CC(=O)NC1(C)CCC(C(C)(C)NC(C)=O)CC1 (configuration not stated) measured for BT-549 breast.
Ans. > 100 µM
